Item-by-item account of solubility kinetic
# Condition Parameters: buffer; pH 7.4; 200.0 µM
Numeric only. Scale: µg/mL

Here are 6 compounds together with their reported answers.
• CN(C(=O)COc1ncnc2sccc12)c1ccccc1 = 39.4
• Cc1ccc(C)n1-c1ccc(C(=O)NCc2ccncc2)cc1 = 38.3
• O=[N+]([O-])c1ccc(CN2CCN(c3ccc(F)cc3)CC2)o1 = 15
• COc1cc2[nH]c(=S)nc(NCc3ccc(C)cc3)c2cc1OC = 3.8
• O=C(NC1CCCc2ccccc21)c1c(F)cccc1Cl (stereo not given) = 8.3
• COc1ccc(-c2ccc(CCC(=O)O)n2Cc2ccco2)cc1 = 48.1

Need solubility kinetic, item O=C(NC(=S)NCc1nc2ccccc2[nH]1)c1ccc(F)cc1
45.3

Need solubility kinetic, item CSc1nsc(SCC(=O)NCc2ccccc2)n1
46.7

# solubility kinetic lookup, item O=C(Nc1ccccc1Br)C1CCN(S(=O)(=O)c2cccs2)CC1
7.8

# solubility kinetic lookup, item Cc1ccccc1OCC(=O)Nc1ccccc1NC(=O)c1ccco1
36.7

What does the record list as solubility kinetic for Cc1ccc(NC(=O)c2ccc([N+](=O)[O-])s2)cc1S(=O)(=O)N1CCOCC1 ?
3.1

Could you share which solubility kinetic value was measured for CC1CCN(CC(=O)N2CCN(c3ccccc3)CC2)CC1 ?
40.8

Consider the compound O=Cc1ccccc1OCCN1CCCC1=O and give its measured solubility kinetic.
33.8

----------
# Condition Parameters: buffer; pH 7.4; 200.0 µM
Recorded solubility kinetic by entry
Numbers only; they are read as µg/mL.

• CCOC(=O)c1sc(Nc2nc(C)cc(OC)n2)nc1C = 5.1
• O=c1[nH]c2ccc(S(=O)(=O)Nc3ccc(Cl)cc3)cc2[nH]1 = 2.2
• O=C(NCc1cccc(C(F)(F)F)c1)c1ccc2c(c1)OCCO2 = 6.1

Entry COc1ccc2nc(C)cc(Nc3ccc(C)cc3)c2c1.Cl has what solubility kinetic?
30.5

Query (compound): CCN(Cc1cc(=O)oc2cc(C)ccc12)c1ccccc1 ; field requested: solubility kinetic
2

Requested field: solubility kinetic. Item: CCOC(=O)c1sc(-c2cccc(C(F)(F)F)c2)nc1O
36.5

Can you look up the measured solubility kinetic of CCc1c(C)c(C#N)c2[nH]c3ccccc3n2c1=S for me?
6.6

Value lookup for solubility kinetic; key = O=C(Cc1ccc(Br)cc1)OCC(=O)c1ccc[nH]1
10.3

----------
Measured solubility kinetic of individual entries
# Condition Parameters: buffer; pH 7.4; 200.0 µM

Here are 10 compounds together with their reported answers.
* O=C(Nc1ccc2ccccc2n1)c1ccc(Cl)cc1 | < 0.3 µg/mL
* CCN1C(=O)C(=O)N(CC(=O)Nc2cccc(C(F)(F)F)c2)C1=O | > 51.5 µg/mL
* Cc1nn(C)c(C)c1/C=C(/C(=O)C(C)C)n1cncn1 | > 41 µg/mL
* CC(=O)Nc1ccc(S(=O)(=O)NC2C3(C)CCC(C3)C2(C)C)cc1 (configuration not stated) | < 0.4 µg/mL
* CCOC(=O)C(=CNc1ccc2c(c1)c1ccccc1n2CC)C(=O)OCC | < 0.4 µg/mL
* O=C(CCc1nc2ccccc2s1)NC1CCOC1=O (configuration not stated) | > 43.6 µg/mL
* O=C(CCNC(=O)c1ccco1)NCc1ccc(F)cc1 | > 43.5 µg/mL
* C=CCn1c(O)c(C=NCCN2CCOCC2)c(=O)[nH]c1=S | > 48.7 µg/mL
* Cc1ccc(C(=O)C(C)Sc2nnc(N)s2)cc1 (configuration not stated) | > 41.9 µg/mL
* CC1=[N+]([O-])C(C)(C)N(O)C1(C)C | > 25.8 µg/mL

Request the reported solubility kinetic associated with Fc1ccc(NC(=S)N2CCN(c3ccccn3)CC2)cc1Cl
< 0.2 µg/mL

Which solubility kinetic value is on record for COc1ccc(CC(=O)NC(C)CCc2ccccc2)cc1OC (configuration not stated) ?
> 49.1 µg/mL

# query: solubility kinetic of entry CC(=O)c1ccc(S(=O)(=O)N2CCNCC2)cc1.Cl
45.5 µg/mL

Need solubility kinetic, item O=C(c1cccc(Cl)c1)N1CCCc2ccccc21
33.6 µg/mL

GET /values?readout=solubility kinetic&item= CCN(CC(=O)N1CCCCC1)S(=O)(=O)c1ccccc1
42.4 µg/mL

Please report the recorded solubility kinetic for Cl.c1ccc2c3c(c(CN4CCCCC4)cc2c1)COC3 .
> 45.6 µg/mL

Fill in the blank: the reported solubility kinetic of COC(=O)c1ccc(CNC(=O)COC(=O)/C=C/c2cc(OC)c(OC)c(OC)c2)cc1 is ____.
4.6 µg/mL

----------
# Condition Parameters: buffer; pH 7.4; 200.0 µM
Quantity Measured: solubility kinetic

Example cases with answers are listed next.
• O=C(c1ccccc1)C(O)C(c1ccccc1)N1CCOCC1 (configuration not stated) = > 46.7 µg/mL
• O=S(=O)(/C=C/c1ccccc1)N1CCc2ccccc2C1 = < 0.6 µg/mL

What solubility kinetic value was documented for this compound, CS(=O)(=O)Nc1ccc(S(=O)(=O)N2CCCC2)cc1 ?
> 45.7 µg/mL

Look up solubility kinetic: COc1ccccc1C(=O)NC(=O)COC(=O)C1CC1
> 41.6 µg/mL

Would you kindly share the measured solubility kinetic for CC(NC(=O)Cc1ccc(Br)cc1)c1ccccc1 (configuration not stated) ?
9.7 µg/mL

Query (compound): CNC(=S)Nc1ccc(Cc2ccncc2)cc1 ; field requested: solubility kinetic
> 38.6 µg/mL

Look at this compound and give its reported solubility kinetic. Cc1[nH]c2ccccc2c1C(=O)C(=O)N1CCN(C)CC1
> 42.8 µg/mL

----------
Reported values of solubility kinetic for individual entries
# Condition Parameters: buffer; pH 7.4; 200.0 µM

The following compounds have reported results that may help.
- CCc1cc2ccccc2nc1Cl: < 0.4 µg/mL
- O=C(Nc1ccc(Cl)cc1)C1C2CCCCC21 (centres undefined): < 0.5 µg/mL
- Fc1ccc(NC(=S)N2CCOCC2)c(F)c1: > 38.7 µg/mL
- O=C(Nc1cccnc1Cl)c1cc(-c2ccc(O)cc2)on1: < 0.2 µg/mL
- Nc1ncn([C@@H]2O[C@H](CO)[C@@H](O)[C@H]2O)c(=O)n1: > 36.6 µg/mL

Requested read-out: solubility kinetic. Entry: O=C1NC2(CCCCC2)C(=O)N1CCN1C(=O)c2ccccc2C1=O
40.1 µg/mL

Any idea what solubility kinetic was measured for Cn1cccc1C(=O)OCC(=O)NCc1cccs1 ?
> 41.7 µg/mL

Entry under review: O=C(COc1ccc(Cl)cc1Cl)c1ccc[nH]1 . Reported solubility kinetic?
34.9 µg/mL

----------
# maps each entry to its solubility kinetic
# Condition Parameters: buffer; pH 7.4; 200.0 µM

- O=C(Nc1nccs1)c1c(O)c2c(n(Cc3ccco3)c1=O)CCCC2: < 0.3 µg/mL
- Cn1nccc1C(=O)N1CCN(c2ccccc2Cl)CC1: > 45.7 µg/mL
- CCOc1ccc(C(=O)Nc2ccc3c(c2)OCCO3)cc1: < 0.6 µg/mL
- Clc1cc(Cl)cc(Nc2ncnc(-n3cccc3)n2)c1: < 0.1 µg/mL
- O=S(=O)(c1ccc2ncn(O)c2c1)N1CCOCC1: > 42.5 µg/mL
- S=C1NCN(Cc2ccco2)CN1: > 29.6 µg/mL

Requested read-out: solubility kinetic. Entry: CCOc1ccc(N(C)S(=O)(=O)c2cnc[nH]2)cc1
> 42.2 µg/mL

----------
# Condition Parameters: buffer; pH 7.4; 200.0 µM
Overview of recorded solubility kinetic for various compounds

Use the examples below as a reference point.
* Cc1cc(S(=O)(=O)NCC2CC2)c(Cl)cc1Cl | > 44.1 µg/mL
* O=C(NCCc1ccccc1Cl)C1CC(=O)N(C2CCCCC2)C1 (configuration not stated) | > 52.3 µg/mL
* O=C(O)Cn1c(=O)c2cccn2c2ccccc21 | > 36.3 µg/mL

Would you mind telling me what solubility kinetic value was observed for O=C(CN1CCN(c2ccc([N+](=O)[O-])cc2)CC1)c1ccccc1 ?
22.5 µg/mL

Bench note: what solubility kinetic did COc1cc2c(cc1OC)C(c1ccc(Cl)cc1)=NCC2 show?
41.5 µg/mL

Can you share its solubility kinetic? I mean this compound: CCCN(CC1CC1)C(=O)COC(=O)c1ccc(C)cc1O
> 45.8 µg/mL

Query (compound): CC(=O)c1c(C)[nH]c(C(=O)Nc2ccc(Cl)cc2F)c1C ; field requested: solubility kinetic
0.7 µg/mL

----------
# Condition Parameters: buffer; pH 7.4; 200.0 µM
Quantity Measured: solubility kinetic

* O=S(=O)(c1cnccc1N1CCN(CCO)CC1)N1CCCCC1 | > 53.2 µg/mL
* Cc1cn2c(N)c(/C=C3\C=Nc4ccccc43)c(=O)nc2s1 | < 0.2 µg/mL
* CN(C)C(CNC(=O)c1ccc(NC(=O)CC#N)cc1)c1ccccc1 (centres undefined) | > 52.6 µg/mL

Attention now turns to another entry.
Find the recorded solubility kinetic belonging to COc1ccc(OC(C)C(=O)NC(C)c2ccccc2)cc1 (centres undefined) and report it.
> 44.9 µg/mL

Data origin, for the record: PubChem BioAssay AID1996
